Test system: CEM cells HIV-1 protection, formazan growth assay
Method: NCI AIDS Antiviral Assay;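 active = compounds giving half or more protection of infected cells from virus-caused growth loss, again on retest; inactive = the rest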
Assign a class; possible classes are active, inactive

Known results for molecules:
C/C(C=O)=C\c1ccc(F)cc1 :: inactive
CC(=Nc1ccccc1C(=O)[O-])c1c([O-])ccc2c(C)cc(=O)oc12.[OH3+].[OH3+].[OH3+].[Zn+2] :: inactive
CCN(CC)CCn1c(=O)c2ccccc2n2c3c(=O)n(C)c(=O)n(C)c3nc12 :: inactive

Short answer needed: outcome of this test for OC12CCC3(O)c4ccccc4C3C1c1ccccc12 (stereo unspecified) ?
inactive

Short answer needed: outcome of this test for O=S(=O)(O)C(C(I)I)S(=O)(=O)O ?
inactive

Short answer needed: outcome of this test for O=C(O)c1ccc(SSc2ccc(C(=O)O)cc2)cc1 ?
active

Short answer needed: outcome of this test for COC(=O)/C(C#N)=C\N1CCNC1=S ?
inactive

Short answer needed: outcome of this test for NC1(C(=O)O)CCCCC1c1ccccc1 (stereo unspecified) ?
inactive

Short answer needed: outcome of this test for COc1ccc(N=Nc2cc(OC)c(N=Nc3c(O)c4ccccc4[nH]c3=O)cc2OC)cc1 ?
inactive

Short answer needed: outcome of this test for CCCCCCCCCCCCS(=O)(=O)O (tested in a mixture with another compound) ?
inactive

Short answer needed: outcome of this test for CC1=C(C(=O)Nc2c(C)cccc2C)C(c2ccc3c(c2)OCO3)C(C(=O)Nc2c(C)cccc2C)=C(C)N1 ?
inactive

====

System: CEM cells HIV-1 protection, formazan growth assay
Method: NCI AIDS Antiviral Assay
pEC50: −log10 of the molar value.
Property label: pEC50

The examples below pair each entry with its known result.
Clc1ccc(-c2c(C3=NCCCN3)nnn2-c2ccccc2)cc1 :: < 3.41
CCCCCCCCNC(=O)/C(=C\c1ccc2c(c1)OCO2)NC(=O)c1ccccc1 :: < 4.23
COc1ccc(-c2nnc3n(C)c4ccccc4n3c2=O)cc1 :: < 4.00
Nc1nc(Cl)cc(NC23CC4CC(CC(C4)C2)C3)n1 :: < 3.70
Oc1ccccc1C(Nc1nc2ccccc2s1)c1ccc2cccnc2c1O (stereo unspecified) :: < 4.47
CCOC(=O)/C(=C\c1ccc(C#N)cc1)[Se]c1ccccc1 :: < 4.28
CCN=C(N)C(C)SS(=O)(=O)O (stereo unspecified) :: < 3.70
O=C1C(O)=C(c2ccccc2)C(=O)C(O)=C1c1ccccc1 :: < 4.07
COc1cc2cc3cc(-c4ccc(Cl)cc4)c(N4CCN(C)CC4)nc3nc2cc1OC :: < 4.40
COC(=O)/C=C1\C(CO[Si](C)(C)C(C)(C)C)OC(n2ccc(=O)[nH]c2=O)C1O[Si](C)(C)C(C)(C)C (stereo unspecified) :: < 3.70

Shift focus to the following entry.
Fill: pEC50 (CEM cells HIV-1 protection, formazan growth assay) for this compound CCOP(=O)(CCCC(O)CNc1nc(N)nc(Cl)c1N=Nc1ccc(Cl)cc1)OCC (stereo unspecified)
< 3.70

====

System: CEM cells HIV-1 protection, formazan growth assay
Method: NCI AIDS Antiviral Assay
Active and inactive are the calls of the source.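 How the source made its calls: active means compounds giving half or more protection of infected cells from virus-caused growth loss, again on retest; inactive means the rest.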
Assign a class; possible classes are true (1) = active, false (0) = inactive

Known results for molecules:
O=C(O)[C@H](NS(=O)(=O)c1ccc(F)cc1)c1ccccc1 :: false (0)
Cc1c(OC(C)C(=O)O)ccc2c(-c3ccccc3)cc(=O)oc12 (stereo not given) :: false (0)
Cc1ccc(N=Nc2c(S(=O)(=O)O)cc3cc(NC(=O)Nc4ccc5c(O)c(N=Nc6ccc7cc(S(=O)(=O)O)ccc7c6)c(S(=O)(=O)O)cc5c4)ccc3c2O)cc1 :: true (1)
Cc1cc2c(c(C(=O)O)c1C)-c1cccc(F)c1C2=O :: false (0)

Short answer needed: outcome of this test for Cc1cc(C)c2c(c1)C(=O)c1c(O)ccc(O)c1C2=O ?
false (0)
